From: patent US20110066134A1

assay_comment: clinical
condition: human, in vivo, average drug amount in masked drape clipping assays

compound	concentration at 24 h
CN(C/C=C/C#CC(C)(C)C)Cc1cccc2ccccc12 [terbinafine]	~423000 ng/g
